# Test system: Rattus norvegicus
# Assay summary: Adjuvant arthritic activity in rat uninjected leg on day 16 tested at 50 mg/kg perorally.
# Type: functional
# Experimental setup: 384 h, route oral
Endpoint name: inhibition in vivo at 50 mg/kg (%)

>>> print(df.to_string())
                                smiles_data    subject_of_test                   endpoint_name  numeric_value
0      COc1ccc(-c2c(-c3ccncc3)nc3n2CCS3)cc1  Rattus norvegicus  inhibition in vivo at 50 mg/kg            -37
1       Fc1ccc(-c2nc3n(c2-c2ccncc2)CCS3)cc1  Rattus norvegicus  inhibition in vivo at 50 mg/kg             44
2  COc1ccc(-c2nc3n(c2-c2ccc(OC)cc2)CCS3)cc1  Rattus norvegicus  inhibition in vivo at 50 mg/kg             29
3      CSc1ccc(-c2c(-c3ccncc3)nc3n2CCS3)cc1  Rattus norvegicus  inhibition in vivo at 50 mg/kg            -18
